Reported pIC50 by item:
measuredTarget: SARS-CoV-2 main protease (M^pro) (Severe acute respiratory syndrome coronavirus 2)
testMethodNotes: Rapid-Fire MS Biochemical Assay measuring Mpro activity (5 nM Mpro)
experimentalContext: Table 1B, Mpro inhibition, 5 μM substrate peptide, 120 min, read-out: Rapid-Fire Assay IC50
pIC50: −log10 of the molar value.

[
  {
    "compound": "CC(C)n1cc(N2C[C@@H](C#N)N(c3cncc4ccccc34)C2=O)cn1 (single isomer, unassigned) [Compound 64b]",
    "pIC50": "< 6.00"
  },
  {
    "compound": "COc1cc(C(F)(F)F)ccc1N1CC(C#N)N(c2cncc3ccccc23)C1=O (racemic)",
    "pIC50": "6.70 to 7.70"
  },
  {
    "compound": "Cc1ccc(F)cc1N1C[C@H](C#N)N(c2cncc3ccccc23)C1=O (single isomer, unassigned) [Compound 21a]",
    "pIC50": "> 7.70"
  },
  {
    "compound": "N#C[C@H]1CN(C2CN(S(=O)(=O)C(F)(F)F)C2)C(=O)N1c1cncc2ccccc12 (single isomer, unassigned) [Compound 129a]",
    "pIC50": "6.70 to 7.70"
  },
  {
    "compound": "N#C[C@@H]1CN(c2nccc(C(F)(F)F)n2)C(=O)N1c1cncc2ccccc12 (single isomer, unassigned) [Compound 49b]",
    "pIC50": "< 6.00"
  },
  {
    "compound": "N#C[C@@H]1CN(c2cncc(C(F)(F)F)c2)C(=O)N1c1cncc2ccccc12 (single isomer, unassigned) [Compound 104b]",
    "pIC50": "< 6.00"
  },
  {
    "compound": "N#CC1CN(C23CC(F)(C2)C3)C(=O)N1c1cncc2ccccc12 (racemic)",
    "pIC50": "6.70 to 7.70"
  },
  {
    "compound": "CC1CC(N2CC(C#N)N(c3cncc4ccccc34)C2=O)C1 (single isomer, unassigned) [Compound 120d]",
    "pIC50": "< 6.00"
  },
  {
    "compound": "Cc1cc(Cl)cnc1N1C[C@H](C#N)N(c2cncc3ccccc23)C1=O (single isomer, unassigned) [Compound 80a]",
    "pIC50": "6.70 to 7.70"
  },
  {
    "compound": "N#C[C@H]1CN(c2cc(C(F)(F)F)cnn2)C(=O)N1c1cncc2ccccc12 (single isomer, unassigned) [Compound 30a]",
    "pIC50": "> 7.70"
  },
  {
    "compound": "COc1ccc(C#N)cc1N1CC(C#N)N(c2cncc3ccccc23)C1=O (racemic)",
    "pIC50": "> 7.70"
  },
  {
    "compound": "N#C[C@@H]1CN(C2CCC(F)(F)C2)C(=O)N1c1cncc2ccccc12 (single isomer, unassigned) [Compound 141c]",
    "pIC50": "< 6.00"
  },
  {
    "compound": "Cc1c[nH]c(N2CC(C#N)N(c3cncc4ccccc34)C2=O)n1 (racemic)",
    "pIC50": "6.00 to 6.70"
  },
  {
    "compound": "COc1nc(C(F)(F)F)ccc1N1C[C@@H](C#N)N(c2cncc3ccccc23)C1=O (single isomer, unassigned) [Compound 95b]",
    "pIC50": "< 6.00"
  }
]

====

measuredTarget: SARS-CoV-2 main protease (M^pro) (Severe acute respiratory syndrome coronavirus 2)
testMethodNotes: Rapid-Fire MS Biochemical Assay measuring Mpro activity (5 nM Mpro)
experimentalContext: Table 1B, Mpro inhibition, 5 μM substrate peptide, 120 min, read-out: Rapid-Fire Assay IC50
pIC50: −log10 of the molar value.

[
  {
    "molecule": "CC1(C)CC(N2C[C@H](C#N)N(c3cncc4ccccc34)C2=O)C1 (single isomer, unassigned) [Compound 126a]",
    "pIC50": "> 7.70"
  },
  {
    "molecule": "N#Cc1cnc(C(F)(F)F)cc1N1C[C@@H](C#N)N(c2cncc3ccccc23)C1=O (single isomer, unassigned) [Compound 117b]",
    "pIC50": "6.00 to 6.70"
  },
  {
    "molecule": "N#Cc1cc(C(F)(F)F)ncc1N1C[C@H](C#N)N(c2cncc3ccccc23)C1=O (single isomer, unassigned) [Compound 18a]",
    "pIC50": "> 7.70"
  },
  {
    "molecule": "N#C[C@H]1CN([C@H]2C[C@H](C(F)(F)F)C2)C(=O)N1c1cncc2ccccc12 [Compound 45a]",
    "pIC50": "> 7.70"
  },
  {
    "molecule": "Cc1cc(N2C[C@H](C#N)N(c3cncc4ccccc34)C2=O)cc(C)n1 (single isomer, unassigned) [Compound 102a]",
    "pIC50": "> 7.70"
  },
  {
    "molecule": "N#CC1CN(c2ccc(Cl)cn2)C(=O)N1c1cncc2ccccc12 (racemic) [Compound 10]",
    "pIC50": "> 7.70"
  },
  {
    "molecule": "N#C[C@@H]1CN(C2CN(C3CC3)C2)C(=O)N1c1cncc2ccccc12 (single isomer, unassigned) [Compound 136b]",
    "pIC50": "< 6.00"
  }
]

====

Reported pIC50 by item:
measuredTarget: SARS-CoV-2 main protease (M^pro) (Severe acute respiratory syndrome coronavirus 2, UniProt P0DTD1)
testMethodNotes: Rapid-Fire MS Biochemical Assay measuring Mpro activity (5 nM Mpro)
experimentalContext: Table 1B, Mpro inhibition, 5 μM substrate peptide, 120 min, read-out: Rapid-Fire Assay IC50
pIC50: −log10 of the molar value.

[
  {
    "molecule": "N#C[C@H]1CN(C2CCC(F)(F)CC2)C(=O)N1c1cncc2ccccc12 (single isomer, unassigned) [Compound 138a]",
    "pIC50": "> 7.70"
  },
  {
    "molecule": "Cc1cc(N2C[C@H](C#N)N(c3cncc4ccccc34)C2=O)cnc1C (single isomer, unassigned) [Compound 98a]",
    "pIC50": "> 7.70"
  },
  {
    "molecule": "N#C[C@@H]1CN(c2cc(OC(F)F)ccc2F)C(=O)N1c1cncc2ccccc12 (single isomer, unassigned) [Compound 59b]",
    "pIC50": "< 6.00"
  },
  {
    "molecule": "CC(C)[C@H]1C[C@H](N2C[C@@H](C#N)N(c3cncc4ccccc34)C2=O)C1 [Compound 123d]",
    "pIC50": "< 6.00"
  },
  {
    "molecule": "N#CC1CN(c2ccc(F)cn2)C(=O)N1c1cncc2ccccc12 (stereo not drawn) [Compound 8]",
    "pIC50": "6.70 to 7.70"
  },
  {
    "molecule": "Cc1cc(N2C[C@@H](C#N)N(c3cncc4ccccc34)C2=O)cnc1C (single isomer, unassigned) [Compound 98b]",
    "pIC50": "< 6.00"
  },
  {
    "molecule": "N#Cc1cc(C(F)(F)F)ncc1N1C[C@@H](C#N)N(c2cncc3ccccc23)C1=O (single isomer, unassigned) [Compound 18b]",
    "pIC50": "< 6.00"
  },
  {
    "molecule": "N#C[C@H]1CN(C23CC(C(F)(F)F)(C2)C3)C(=O)N1c1cncc2ccccc12 (single isomer, unassigned) [Compound 137a]",
    "pIC50": "> 7.70"
  },
  {
    "molecule": "CS(=O)(=O)N1CC(N2C[C@@H](C#N)N(c3cncc4ccccc34)C2=O)C1 (single isomer, unassigned) [Compound 130b]",
    "pIC50": "< 6.00"
  },
  {
    "molecule": "N#C[C@H]1CN(c2ncc(C(F)(F)F)cn2)C(=O)N1c1cncc2ccccc12 (single isomer, unassigned) [Compound 42a]",
    "pIC50": "> 7.70"
  },
  {
    "molecule": "CS(=O)(=O)c1ccc2cncc(N3C(=O)N(c4cccc(Cl)c4)C[C@H]3C#N)c2c1 (single isomer, unassigned) [Compound 37b]",
    "pIC50": "< 6.00"
  },
  {
    "molecule": "N#C[C@H]1CN(c2ccc(F)cc2F)C(=O)N1c1cncc2ccccc12 (single isomer, unassigned) [Compound 66a]",
    "pIC50": "> 7.70"
  },
  {
    "molecule": "COc1ccc(N2C[C@@H](C#N)N(c3cncc4ccccc34)C2=O)cn1 (single isomer, unassigned) [Compound 112b]",
    "pIC50": "< 6.00"
  },
  {
    "molecule": "CS(=O)(=O)c1cccc(N2C[C@H](C#N)N(c3cncc4ccccc34)C2=O)c1 (single isomer, unassigned) [Compound 48a]",
    "pIC50": "> 7.70"
  },
  {
    "molecule": "N#Cc1ccc(Cl)cc1N1C[C@H](C#N)N(c2cncc3ccccc23)C1=O (single isomer, unassigned) [Compound 20a]",
    "pIC50": "> 7.70"
  },
  {
    "molecule": "N#C[C@@H]1CN(c2cccc(Cl)c2)C(=O)N1c1cncc2ccccc12 (single isomer, unassigned) [Compound 2b]",
    "pIC50": "< 6.00"
  },
  {
    "molecule": "CS(=O)(=O)c1ccc2cncc(N3C(=O)N(c4ccc(F)c(F)c4)C[C@@H]3C#N)c2c1 (single isomer, unassigned) [Compound 85a]",
    "pIC50": "> 7.70"
  },
  {
    "molecule": "N#C[C@@H]1CN([C@H]2C[C@H](C3CC3)C2)C(=O)N1c1cncc2ccccc12 [Compound 124c]",
    "pIC50": "< 6.00"
  },
  {
    "molecule": "N#C[C@H]1CN(c2ccccc2F)C(=O)N1c1cncc2ccccc12 (single isomer, unassigned) [Compound 56a]",
    "pIC50": "6.70 to 7.70"
  },
  {
    "molecule": "Cc1cc(N2C[C@H](C#N)N(c3cncc4ccccc34)C2=O)ccn1 (single isomer, unassigned) [Compound 44a]",
    "pIC50": "6.70 to 7.70"
  },
  {
    "molecule": "Cc1ccc(C(F)(F)F)nc1N1C[C@@H](C#N)N(c2cncc3ccccc23)C1=O (single isomer, unassigned) [Compound 82b]",
    "pIC50": "< 6.00"
  },
  {
    "molecule": "N#C[C@@H]1CN(c2ccc(C(F)(F)F)cn2)C(=O)N1c1cncc2ccccc12 (single isomer, unassigned) [Compound 97b]",
    "pIC50": "< 6.00"
  },
  {
    "molecule": "N#C[C@@H]1CN(c2cccc(C(F)F)c2)C(=O)N1c1cncc2ccccc12 (single isomer, unassigned) [Compound 22b]",
    "pIC50": "< 6.00"
  },
  {
    "molecule": "N#C[C@@H]1CN(c2ncc(Cl)cn2)C(=O)N1c1cncc2ccccc12 (single isomer, unassigned) [Compound 16b]",
    "pIC50": "6.00 to 6.70"
  },
  {
    "molecule": "N#C[C@H]1CN(c2ncc(Cl)cn2)C(=O)N1c1cncc2ccccc12 (single isomer, unassigned) [Compound 16a]",
    "pIC50": "> 7.70"
  },
  {
    "molecule": "N#CC1CN(c2cc(C(F)(F)F)ncc2Cl)C(=O)N1c1cncc2ccccc12 (racemic) [Compound 70-1]",
    "pIC50": "6.70 to 7.70"
  },
  {
    "molecule": "N#CC1CN(c2cccc(F)c2)C(=O)N1c1cncc2ccccc12 (racemic) [Compound 7]",
    "pIC50": "> 7.70"
  }
]

Data provenance: patent US20250092016A1
